- tested on: GRID2IP_2, A4D2P6
- Sequence (A4D2P6 272-370): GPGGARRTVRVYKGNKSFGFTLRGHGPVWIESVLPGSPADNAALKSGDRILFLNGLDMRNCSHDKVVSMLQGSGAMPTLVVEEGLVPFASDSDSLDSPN
- measurement protocol: holdup assay
- Design: key: below the threshold = too weak to quantify, mostly under pKd 3.1 to 4
- measurement conditions: plain residues with an end cap or a label only (N-terminal biotin on a linker: ado-ado)

{"binder": "GQNMTVSVVI [PRLHR, P49683]", "pKd": "below the threshold"}
{"binder": "SQDPKKPSRV [CBY2, Q8NA61]", "pKd": "below the threshold"}
{"binder": "QKASRNESTF [POLR1D, P0DPB6]", "pKd": "below the threshold"}
